# System: HCC-2998 colon
# experiment-notes: NCI-60 one-dose screen, 48 h
# condition-details: 10 µM unless noted
Compounds without any hit were thinned out: in the full panel of roughly 83,000, 20% have a hit. The source made the active and inactive calls. The calls were made as follows: active = growth percent below 10; inactive = the rest.
Allowed answers: YES (active), NO (inactive)

test_smiles=CCCCNc1ccc(C#N)c(OCCN(CC)CC)c1 answer_label=NO
test_smiles=O=c1oc2ccc([N+](=O)[O-])cc2cc1Br answer_label=NO
test_smiles=CC1(C)CCC(S(=O)(=O)c2ccc3c(c2)/C(=N\O)c2cc(S(=O)(=O)N4CCC(O)(c5cccc(C(F)(F)F)c5)CC4)ccc2-3)CC1 answer_label=YES
test_smiles=COc1ccc(OC)c(-c2c(C#N)c(-c3cccs3)nc3c2c(-c2ccccc2)nn3-c2ccccc2)c1 answer_label=NO
test_smiles=CN1CCN(C(=O)OCc2ccc3c(Cl)cc(Cl)c(O)c3n2)CC1 answer_label=NO

Query: recorded result category for Cc1ccccc1NC(=O)c1sc2nc(C)c(C(=O)/C=C/c3ccccc3)cc2c1N in this test
YES

Test call for this compound, please: Cc1cccc(Cl)c1NC(=O)c1ccc2nc(NC(=O)NCCN(C)C)sc2c1
NO

Recorded call for N#Cc1c(-c2ccc(Cl)cc2)nc(NN=Cc2cccc(O)c2)nc1N1CCOCC1 ?
NO

Per the records of this test, what outcome belongs to C=C1C(=O)O[C@H]2[C@H]1CC/C(COC(=O)NCc1cc[nH]c1)=C\CC[C@@]1(C)O[C@@H]21 ?
NO

Test call for this compound, please: CC(C)(C)n1cc(-c2ccnc(NCCCNS(=O)(=O)c3ccc(F)cc3)c2)c(-c2cccc(F)c2)n1
NO

Answer briefly: the call reported for COc1cc(-c2cc(-c3cccs3)c(C#N)c(N3CCOCC3)n2)cc(OC)c1OC in this assay.
NO
